B1: TMEM192 (parent)
chain: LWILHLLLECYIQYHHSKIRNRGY

- Variants of: B1
- Assay Explanation: protein stability index of a GFP-peptide fusion (GPS, HEK-293T) (PSI 1-6); higher = more stable;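 further: lentivirally expressed fusions sorted by FACS into six bins by GFP to DsRed ratio, PSI derived from sequencing read proportions per bin multiplied by bin number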
- Condition Parameters: c terminus: a fixed tail appended
Provide the recorded protein stability index for the entries that follow.
// return just the number, without any unit appended

Exercise: Item `L8M` has what recorded protein stability index?
Solution: 2.01

Exercise: Try the variant `L7N`
Solution: 2

Exercise: Try the variant `I19R`
Solution: 1.96

Exercise: Try the variant `L6P`
Solution: 1.97

Exercise: Try the variant `N21K`
Solution: 1.98

Exercise: Try the variant `E9T`
Solution: 1.96

Exercise: Try the variant `N21F`
Solution: 1.97

Exercise: Try the variant `L6K`
Solution: 2

Origin of the recorded values: the supplement of paper PMC10567573
